# Tested on: ALOMY
# Assay Method Text: Pre-emergence herbicidal action against weed plants
# Format: in vivo, Alopecurus myosuroides
# Test Context: dose 320 g a.c./ha, scored after 3 to 4 weeks under glass
Quantity Name: Herbicidal action against ALOMY (%)
Provide only the numeric value, understood in %.

Cc1c(C(=O)C2C(=O)C3CCC(C3)C2=O)ccc(C(F)(F)F)c1[S+](C)[O-] (stereo not shown) : 100

Give a short answer stating reported Herbicidal action against ALOMY for Cc1nn(C)c(O)c1C(=O)c1ccc(C(F)(F)F)c(S(C)(=O)=O)c1C .
50

Hello, please tell me recorded Herbicidal action against ALOMY for this one: CCn1ncc(C(=O)c2ccc(C(F)(F)F)c(S(C)(=O)=O)c2C)c1O
50

Identify measured Herbicidal action against ALOMY associated with Cc1c(C(=O)C2C(=O)C3CCC(C3)C2=O)ccc(C(F)(F)F)c1S(C)(=O)=O (stereo not shown)
90

For the compound Cc1nn(C)c(O)c1C(=O)c1ccc(C(F)(F)F)c([S+](C)[O-])c1C (stereo not shown) , report Herbicidal action against ALOMY.
60

Please indicate Herbicidal action against ALOMY recorded for Cc1c(C(=O)c2cnn(C)c2O)ccc(C(F)(F)F)c1[S+](C)[O-] (stereo not shown)
70

Using the record for CCn1ncc(C(=O)c2ccc(C(F)(F)F)c([S+](C)[O-])c2C)c1O (stereo not shown) , state its measured Herbicidal action against ALOMY.
70
